# MEASUREMENT_NOTES: AUClast in Balb/c nude mouse at 1 mg/kg, iv
# Format: ADME, organism-based
# Design: dose 1 mg/kg, time 0 - last, route intravenous
# STUDY_CONDITIONS: in vivo
ASSAY_ENDPOINT: AUC(0-t) (µM·h)
Number only, in µM·h; omit the unit.

// query Endpoint output: AUC(0-t) of `O=C(NO)c1ccc2c(c1)CN(c1nc3ccccc3[nH]1)CC2` . Value?
// result 1

----------
# MEASUREMENT_NOTES: Clearance in Balb/c nude mouse at 1 mg/kg, iv
# Format: ADME, organism-based
# STUDY_CONDITIONS: in vivo
ASSAY_ENDPOINT: clearance

// query Endpoint output: clearance of `O=C(NO)c1ccc2c(c1)CN(c1nc3ccccc3[nH]1)CC2` . Value?
// result 42 mL/min/kg
